Field: IC50. Provide a value for each of the compounds that follow.
Tested on: gel-filtered platelets
Experiment description: In vitro inhibition of thrombin-induced gel-filtered platelet aggregation
Assay type: cell-based
Experimental conditions: Platelet; human gel-filtered platelets; agonist thrombin 50 μL of 1 unit/mL; read-out: Thrmb IC50 (Thrombin-induced aggregation of gel-filtered platelets)
Experimental: In Vitro Inhibition of Thrombin-Induced Gel-Filtered Platelet Aggregation Assay The percentage of platelet aggregation is calculated as an increase in light transmission of compound-treated platelet concentrate vs. control-treated platelet concentrate. Human blood is obtained from drug free, normal donors in tubes containing 0.13M sodium citrate. […] Aggregation is monitored in a BIODATA aggregometer for the 3 min following the addition of agonist (thrombin 50 μL of 1 unit/mL). […]

Tell me its IC50 given `COc1ccc(C[C@H](NC(=O)Nc2ccc3c(CNC4CCCC4)cn(Cc4ccc(F)cc4)c3c2)C(=O)N[C@@H](CCCNC(=N)N)C(=O)NCc2ccccc2)cc1` as the entry. 21400 nM

Indicate its recorded IC50; the compound in question is `O=C(Nc1ccc2c(CN3CCCC3)cn(Cc3c(Cl)cccc3Cl)c2c1)N[C@@H](Cc1ccc(F)c(F)c1)C(=O)N[C@@H](Cc1ccncc1)C(=O)NCc1ccccc1` 640 nM

Report measured IC50; entry is `N=C(N)NCCC[C@H](NC(=O)[C@@H]1Cc2ccccc2CN1C(=O)Nc1ccc2c(CN3CCCC3)cn(Cc3ccc(F)cc3)c2c1)C(=O)NCc1ccccc1` > 10000 nM

// fetch IC50 given entry `NCCC[C@H](NC(=O)[C@H](Cc1ccc(Cl)cc1)NC(=O)Nc1ccc2c(CN3CCCC3)cn(Cc3c(Cl)cccc3Cl)c2c1)C(=O)NCc1ccccc1Cl` 740 nM

Tell us which IC50 value is on record for `N=C(N)NCCC[C@H](NC(=O)[C@H](Cc1ccc(F)c(F)c1)NC(=O)Nc1ccc2c(CN3CCCC3)c(-c3ccccc3)n(Cc3ccc(F)cc3)c2c1)C(=O)NCc1ccc(F)cc1` 1000 nM
